- measured_target: AChE (Rattus norvegicus, UniProt P37136)
- Construct: AChE was derived from the SD rat brains by homogenizing the brain with 20-fold saline solution; from tissue; host or cells: SD rat brain homogenate (supernatant after 800 x g)
- Sequence (P37136 32-614): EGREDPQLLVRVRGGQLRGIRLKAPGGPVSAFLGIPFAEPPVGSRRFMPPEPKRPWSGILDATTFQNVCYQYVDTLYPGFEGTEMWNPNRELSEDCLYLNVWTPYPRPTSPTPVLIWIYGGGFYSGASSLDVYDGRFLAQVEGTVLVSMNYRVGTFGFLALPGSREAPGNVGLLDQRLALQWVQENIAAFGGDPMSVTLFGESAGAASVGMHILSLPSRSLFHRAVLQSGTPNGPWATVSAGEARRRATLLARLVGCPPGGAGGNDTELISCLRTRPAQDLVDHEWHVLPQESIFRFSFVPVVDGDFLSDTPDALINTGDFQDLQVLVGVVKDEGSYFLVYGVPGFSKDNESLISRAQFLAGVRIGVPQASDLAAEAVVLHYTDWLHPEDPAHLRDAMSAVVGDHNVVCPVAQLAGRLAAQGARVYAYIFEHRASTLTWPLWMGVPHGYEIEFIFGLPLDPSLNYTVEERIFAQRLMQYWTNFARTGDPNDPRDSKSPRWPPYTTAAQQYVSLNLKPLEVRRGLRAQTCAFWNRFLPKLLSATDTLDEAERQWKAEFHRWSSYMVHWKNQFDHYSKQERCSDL
- procedure_summary: In vitro AChE inhibitory assay (Ellman's method)
- Format: biochemical
- condition_details: AChE from SD rat brain homogenate; ASCh substrate; 60 min, 37 °C; read-out: IC50(μM) AChE
experimental_endpoint: IC50 (µM)

compound_structure=O=C(CCNC1CCCCC1)c1ccc(-c2ccc(C(=O)CCNC3CCCCC3)cc2)cc1 experimental_value=2.15
compound_structure=O=C(CCN1CCCCC1)c1ccc(Cc2ccc(C(=O)CCN3CCCCC3)cc2)cc1 experimental_value=4.11
compound_structure=O=C(CCN1CCCCC1)c1ccc2c(c1)c1cc(C(=O)CCN3CCCCC3)ccc1n2C(=O)CCN1CCCCC1 experimental_value=1.42
compound_structure=O=C(c1ccc(-c2ccc(C(=O)N3CCCCC3)cc2)cc1)N1CCCCC1 experimental_value=0.84
compound_structure=CC(C)(c1ccc(C(=O)CCN2CCCCC2)cc1)c1ccc(C(=O)CCN2CCCCC2)cc1 experimental_value=3.07
compound_structure=O=C(CCN1CCCCC1)c1ccc(-c2ccc(C(=O)CN3CCCCC3)cc2)cc1 experimental_value=3.32
compound_structure=CN1CCN(CCC(=O)c2ccc(Cc3ccc(C(=O)CCN4CCN(C)CC4)cc3)cc2)CC1 experimental_value=7.55
compound_structure=C=C(CN1CCCCC1)C(=O)c1ccc(-c2ccc(C(=O)C(=C)CN3CCCCC3)cc2)cc1 experimental_value=17.1

meta.source: paper PMC6152156
